# System: LOX IMVI melanoma
# ASSAY PROCEDURE: NCI tumour cell line growth inhibition, 48 h
Kindly state TGI for each of the entries shown.

Exercise: Looking for the measured TGI of N#CN1CC[C@H](C(=O)Nc2cc3cc(C(N)=O)ccc3cn2)C1 , can you help?
Key: > 54.9 µM

Exercise: Entry under review: CC(C)(C)OC(=O)CN1CCN(CC(=O)N2CCN(C(=O)OCc3ccccc3)CC2)CCN(CC(=O)OC(C)(C)C)CCN(CC(=O)N2CCN(C(=O)OCc3ccccc3)CC2)CC1 . Reported TGI?
Key: 2.93 µM

Exercise: // lookup TGI for COc1cc(C2c3cc4c(cc3[C@@H](Oc3ccc(F)cc3)C3COC(=O)[C@H]23)OCO4)cc(OC)c1O (some centres undefined)
Key: > 100 µM

Exercise: Item under review: O=C(C/C(CCC(=O)N(Cc1ccccc1)Cc1ccccc1)=N/Nc1ccc([N+](=O)[O-])cc1[N+](=O)[O-])c1ccccc1 . Reported TGI?
Key: > 100 µM
